- test-system: T1, hIL-18BP-hFc (human, UniProt O95998 31-194, limits assumed)
- T1 sequence (looked up): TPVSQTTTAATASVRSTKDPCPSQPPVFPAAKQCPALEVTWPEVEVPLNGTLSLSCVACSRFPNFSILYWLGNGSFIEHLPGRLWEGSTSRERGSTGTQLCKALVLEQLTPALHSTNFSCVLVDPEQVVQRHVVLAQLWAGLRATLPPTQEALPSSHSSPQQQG
- procedure-details: cell-based or functional assay
measurement-type: EC50 (nM) in the Presence of 1 µg/mL hIL-18BP-hFc, hIL-18 reporter assay
Entry rule: numbers only, all in nM.

Examples from the recorded data:
binder="IL-18 variant polypeptide M9 (ligand) YFPKLRSKLSVIRNLNDQVLFIDQGNRPLFEDMTDSDCRDNAPRTIFIISMYKWSRARGMAVTISVKCEKISTLSCENKIISFKEMNPPDSIKDTKSDIIFFQSSVPGHDNKMQFESSSYEGYFLACEKERDLFKLILKKEDELGDRSIMFTVQNED" result_units=nM readout_value=0.33
binder="IL-18 variant polypeptide M4 (ligand) YFPKLKSKLSVIRNLNDQVLFIDQGNRPLFEDMTDSDCRDNAPRTIFIISMYKWSGVRGMAVTISVKCEKISTLSCENKIISFKEMNPPDVIKDTKSDIIFFQFSVPGHDNKMQFESSSYEGYFLACEKERDLFKLILKKEDELGDRSIMFTVQNED" result_units=nM readout_value=0.025
binder="IL-18 variant polypeptide M32 (ligand) YFPKLGSKLSVIRNLNDQVLFIDQGNRPLFEDMTDSDCRDNAPRTIFIISMYKSSSRRGMAVTISVKCEKISTLSCENKIISFKEMNPPDNIKDTKSDIIFFQRSVPGHDNKMQFESSSYEGYFLACEKERDLFKLILKKEDELGDRSIMFTVQNED" result_units=nM readout_value=4.1
binder="IL-18 variant polypeptide M21 (ligand) YFPKLRSKLSVIRNLNDQVLFIDQGNRPLFEDMTDSDCRDNAPRTIFIISMYKSSSTRGMAVTISVKCEKISTLSCENKIISFKEMNPPDGIKDTKSDIIFFQSSVPGHDNKMQFESSSYEGYFLACEKERDLFKLILKKEDELGDRSIMFTVQNED" result_units=nM readout_value=2.1

Now for a further binder.
Report EC50 (nM) in the Presence of 1 µg/mL hIL-18BP-hFc, hIL-18 reporter assay for IL-18 variant polypeptide M10 (ligand) YFPKLRSKLSVIRNLNDQVLFIDQGNRPLFEDMTDSDCRDNAPRTIFIISMYKQSLWRGMAVTISVKCEKISTLSCENKIISFKEMNPPDSIKDTKSDIIFFQRSVPGHDNKMQFESSSYEGYFLACEKERDLFKLILKKEDELGDRSIMFTVQNED 0.17
